- Target system: Indoleamine 2,3-dioxygenase 1 (Homo sapiens, UniProt P14902)
- Sequence (P14902 whole entry): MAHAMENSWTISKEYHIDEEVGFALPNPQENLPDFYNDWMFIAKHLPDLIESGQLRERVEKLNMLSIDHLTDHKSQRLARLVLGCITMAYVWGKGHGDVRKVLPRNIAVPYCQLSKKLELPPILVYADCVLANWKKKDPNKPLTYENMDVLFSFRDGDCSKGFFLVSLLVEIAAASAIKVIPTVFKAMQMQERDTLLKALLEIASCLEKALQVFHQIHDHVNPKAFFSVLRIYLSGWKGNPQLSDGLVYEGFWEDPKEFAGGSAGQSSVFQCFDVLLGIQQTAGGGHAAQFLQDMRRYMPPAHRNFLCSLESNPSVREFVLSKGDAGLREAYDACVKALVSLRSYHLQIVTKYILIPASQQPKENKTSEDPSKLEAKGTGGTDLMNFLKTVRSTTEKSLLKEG
- Assay notes: Inhibition of human recombinant IDO1 assessed as reduction in N-formylkynurenine formation using L-tryptophan as substrate preincubated for 30 mins followed by substrate addition and measured after 20 mins by SpectraMax microplate reader analysis
Task for the reader: assign each of the following molecules its reported IC50.

1. CC(C)CNC(=O)Nc1nonc1/C(=N/O)Nc1ccc(F)c(Br)c1 :: 96.3 nM
2. O=C(Nc1ccc(Br)cc1)Nc1nonc1/C(=N/O)Nc1ccc(F)c(Br)c1 :: 224 nM
3. O=C(Nc1nonc1/C(=N/O)Nc1ccc(F)c(Br)c1)NC1CCC1 :: 166 nM
4. CNC(=O)Nc1nonc1/C(=N/O)Nc1ccc(F)c(Br)c1 :: 118 nM
5. NCCCCNC(=O)Nc1nonc1/C(=N/O)Nc1ccc(F)c(Br)c1 :: > 1000 nM

Provide the reported IC50 of each entry below, same order.
1. O=C(NCC1CCCCC1)Nc1nonc1/C(=N/O)Nc1ccc(F)c(Br)c1
2. COc1cccc(NC(=O)Nc2nonc2/C(=N/O)Nc2ccc(F)c(Br)c2)c1
3. CN1CCN(C(=O)Nc2nonc2/C(=N/O)Nc2ccc(F)c(Br)c2)CC1
4. O=C(Nc1nonc1/C(=N/O)Nc1ccc(F)c(Br)c1)N1CCCC1
5. CCNC(=O)Nc1nonc1/C(=N/O)Nc1ccc(F)c(Br)c1
6. O=C(NCCO)Nc1nonc1/C(=N/O)Nc1ccc(F)c(Br)c1

A.
["847 nM", "183 nM", "612 nM", "> 1000 nM", "67.4 nM", "> 1000 nM"]

Batch request: IC50 per item, same order as input.
1. COc1ccc(NC(=O)Nc2nonc2/C(=N/O)Nc2ccc(F)c(Br)c2)cc1OC
2. COCCCNC(=O)Nc1nonc1/C(=N/O)Nc1ccc(F)c(Br)c1
3. O=C(Nc1nonc1/C(=N/O)Nc1ccc(F)c(Br)c1)NC1CCCC1
4. CN(C)C(=O)Nc1nonc1/C(=N/O)Nc1ccc(F)c(Br)c1

A.
["331 nM", "> 1000 nM", "314 nM", "347 nM"]

Need IC50 for each of these molecules.
1. O=C(Nc1ccc(Cl)cc1)Nc1nonc1/C(=N/O)Nc1ccc(F)c(Br)c1
2. CN(C)CCNC(=O)Nc1nonc1/C(=N/O)Nc1ccc(F)c(Br)c1
3. O=C(Nc1nonc1/C(=N/O)Nc1ccc(F)c(Br)c1)NC1CC1
4. CCCCNC(=O)Nc1nonc1/C(=N/O)Nc1ccc(F)c(Br)c1
5. O=C(Nc1nonc1/C(=N/O)Nc1ccc(F)c(Br)c1)N1CCC(O)C1 (stereo not drawn)
6. O=C(NCC1CC1)Nc1nonc1/C(=N/O)Nc1ccc(F)c(Br)c1
7. CC(C)NC(=O)Nc1nonc1/C(=N/O)Nc1ccc(F)c(Br)c1

A.
311 nM
> 1000 nM
79.3 nM
159 nM
> 1000 nM
77 nM
82.6 nM

Q. Fill in: IC50 of O=C(Nc1nonc1/C(=N/O)Nc1ccc(F)c(Br)c1)N1CCC1 is ___
A. 632 nM

* * *

- Test system: HeLa
- Assay notes: cells
- Measurement context: Homo sapiens, 24 h
Recorded endpoint: pIC50
One number for each entry, as −log10 of the molar value.

Take a look at these entries with their results.
1. CCNC(=O)Nc1nonc1/C(=N/O)Nc1ccc(F)c(Br)c1 :: 4.34
2. O=C(NCC1CC1)Nc1nonc1/C(=N/O)Nc1ccc(F)c(Br)c1 :: 4.27

# next molecule below
Q. Value lookup for pIC50; key = NS(=O)(=O)NCCNc1nonc1/C(=N/O)Nc1ccc(F)c(Br)c1
A. 4.22

* * *

- Target system: Indoleamine 2,3-dioxygenase 1 (Homo sapiens, UniProt P14902)
- Assay notes: Inhibition of human recombinant IDO1 assessed as reduction in N-formylkynurenine formation using L-tryptophan as substrate preincubated for 30 mins followed by substrate addition and measured after 20 mins by SpectraMax microplate reader analysis
Exercise: state measured IC50 for each of the compounds provided.
Answers are plain numbers, in nM.

Some entries whose results are on file:
1) O=C(NCC1CCC1)Nc1nonc1/C(=N/O)Nc1ccc(F)c(Br)c1 :: 109
2) COc1ccccc1NC(=O)Nc1nonc1/C(=N/O)Nc1ccc(F)c(Br)c1 :: 298
3) CCCNC(=O)Nc1nonc1/C(=N/O)Nc1ccc(F)c(Br)c1 :: 222
4) O=C(Nc1nonc1/C(=N/O)Nc1ccc(F)c(Br)c1)NC1CCCCC1 :: 544
5) O=C(Nc1ccc(F)cc1)Nc1nonc1/C(=N/O)Nc1ccc(F)c(Br)c1 :: 208
6) O=C(Nc1ccccc1)Nc1nonc1/C(=N/O)Nc1ccc(F)c(Br)c1 :: 197

Consider now this further compound.
Q. Return reported IC50; argument: COc1ccc(NC(=O)Nc2nonc2/C(=N/O)Nc2ccc(F)c(Br)c2)cc1
A. 148

* * *

So I've got a bunch of compounds here, and I need their Tmax values.
- Assay notes: Tmax in Sprague-Dawley rat at 25 mg/kg, po by LC-MS/MS analysis
- Format: ADME, organism-based
- Measurement context: in vivo
One number for each entry, in min.

1) CCNC(=O)Nc1nonc1/C(=N/O)Nc1ccc(F)c(Br)c1 :: 60

Q. What does the record list as Tmax for NS(=O)(=O)NCCNc1nonc1C(=NO)Nc1ccc(F)c(Br)c1 ?
A. 18.6

* * *

- Assay notes: Half life in Sprague-Dawley rat at 5 mg/kg, iv by LC-MS/MS analysis
- Type: ADME, organism-based
- Measurement context: in vivo
Recorded endpoint: half-life

1. CCNC(=O)Nc1nonc1/C(=N/O)Nc1ccc(F)c(Br)c1 :: 1.62 h

Next:
Q. Recorded half-life of NS(=O)(=O)NCCNc1nonc1C(=NO)Nc1ccc(F)c(Br)c1 [EPACADOSTAT] , please.
A. 0.64 h

* * *

Task for the reader: assign each of the following compounds its reported half-life.
- Assay notes: Half life in Sprague-Dawley rat at 25 mg/kg, po by LC-MS/MS analysis
- Assay type: ADME, organism-based
- Measurement context: in vivo
Answers are plain numbers, in h.

1. NS(=O)(=O)NCCNc1nonc1C(=NO)Nc1ccc(F)c(Br)c1 :: 2.21

Q. Using the record for CCNC(=O)Nc1nonc1/C(=N/O)Nc1ccc(F)c(Br)c1 , report its half-life.
A. 1.31

* * *

- Target system: Indoleamine 2,3-dioxygenase 2 (Homo sapiens)
- Sequence (whole entry): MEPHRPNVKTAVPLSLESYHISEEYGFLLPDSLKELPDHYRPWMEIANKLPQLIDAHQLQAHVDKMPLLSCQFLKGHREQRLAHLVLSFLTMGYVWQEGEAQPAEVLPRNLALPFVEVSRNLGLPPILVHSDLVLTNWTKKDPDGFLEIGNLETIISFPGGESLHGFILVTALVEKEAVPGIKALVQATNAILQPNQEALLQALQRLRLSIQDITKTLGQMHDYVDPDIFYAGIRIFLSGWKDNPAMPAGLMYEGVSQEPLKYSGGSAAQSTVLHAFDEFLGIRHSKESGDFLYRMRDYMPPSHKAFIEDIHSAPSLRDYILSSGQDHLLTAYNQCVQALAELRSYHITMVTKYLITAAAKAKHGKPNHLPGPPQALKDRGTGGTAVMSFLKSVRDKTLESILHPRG
- Assay notes: Inhibition of human recombinant IDO2 assessed as reduction in N-formylkynurenine formation using L-tryptophan as substrate at 1 uM preincubated for 30 mins followed by substrate addition and measured after 20 mins by SpectraMax microplate reader analysis
- Measurement context: time 50.0 min
Calls of active or inactive are those of the source. No cut-off for these calls is given here.
Recorded endpoint: inhibition

1) NCCCNC(=O)Nc1nonc1/C(=N/O)Nc1ccc(F)c(Br)c1 :: inactive
2) CCNC(=O)Nc1nonc1/C(=N/O)Nc1ccc(F)c(Br)c1 :: inactive
3) CNC(=O)Nc1nonc1/C(=N/O)Nc1ccc(F)c(Br)c1 :: inactive
4) CC(C)CNC(=O)Nc1nonc1/C(=N/O)Nc1ccc(F)c(Br)c1 :: inactive

// for each compound below, give its inhibition
1. CCCNC(=O)Nc1nonc1/C(=N/O)Nc1ccc(F)c(Br)c1
2. COc1ccc(NC(=O)Nc2nonc2/C(=N/O)Nc2ccc(F)c(Br)c2)cc1
3. CN(C)C(=O)Nc1nonc1/C(=N/O)Nc1ccc(F)c(Br)c1

A.
1. inactive
2. inactive
3. inactive

For every listed record, write down its inhibition.
1. O=C(Nc1nonc1/C(=N/O)Nc1ccc(F)c(Br)c1)NC1CC1
2. O=C(Nc1nonc1/C(=N/O)Nc1ccc(F)c(Br)c1)NC1CCCCC1
3. CC(C)NC(=O)Nc1nonc1/C(=N/O)Nc1ccc(F)c(Br)c1
4. O=C(Nc1nonc1/C(=N/O)Nc1ccc(F)c(Br)c1)NC1CCCC1
5. CN1CCN(C(=O)Nc2nonc2/C(=N/O)Nc2ccc(F)c(Br)c2)CC1

A.
["inactive", "inactive", "inactive", "inactive", "inactive"]

Below are some compounds; for each one, tell me its inhibition.
1. O=C(NCCO)Nc1nonc1/C(=N/O)Nc1ccc(F)c(Br)c1
2. COc1ccccc1NC(=O)Nc1nonc1/C(=N/O)Nc1ccc(F)c(Br)c1
3. NCCNC(=O)Nc1nonc1/C(=N/O)Nc1ccc(F)c(Br)c1
4. CN(C)CCNC(=O)Nc1nonc1/C(=N/O)Nc1ccc(F)c(Br)c1
5. O=C(Nc1nonc1/C(=N/O)Nc1ccc(F)c(Br)c1)N1CCC1
6. O=C(Nc1ccc(Br)cc1)Nc1nonc1/C(=N/O)Nc1ccc(F)c(Br)c1
7. O=C(NCC1CCC1)Nc1nonc1/C(=N/O)Nc1ccc(F)c(Br)c1

A.
1: inactive; 2: inactive; 3: inactive; 4: inactive; 5: inactive; 6: inactive; 7: inactive

Batch of 3 compounds: report inhibition for each.
1. O=C(Nc1nonc1/C(=N/O)Nc1ccc(F)c(Br)c1)N1CCC(O)C1 (configuration not stated)
2. O=C(Nc1nonc1/C(=N/O)Nc1ccc(F)c(Br)c1)N1CCCC1
3. O=C(Nc1nonc1/C(=N/O)Nc1ccc(F)c(Br)c1)NC1CCC1

A.
["inactive", "inactive", "inactive"]
